Experimental Protocol: acute toxicity, oral, in mice
Assay type: in vivo
Applied Conditions: mouse, in vivo, po, Table 4; oral, female Slc: ddy mice, 6 days observation, Litchfield-Wilcoxon; read-out: LD50
Readout: LD50 at 144 h

Before answering, review these 8 worked examples.
- Compound: "Cc1cc(O)c2oc(=O)c(-c3nnn[nH]3)cc2c1 [Example 27]"
  LD50 at 144 h: "2000 to 3000 mg/kg"
- Compound: "C=CCOc1cc(C)cc2cc(-c3nnn[nH]3)c(=O)oc12 [Example 26]"
  LD50 at 144 h: "2000 to 3000 mg/kg"
- Compound: "CCOc1cc(C)cc2cc(-c3nnn[nH]3)c(=O)oc12 [Example 20]"
  LD50 at 144 h: "2360 mg/kg"
- Compound: "CCOc1cc(OCC)c2cc(-c3nnn[nH]3)c(=O)oc2c1 [Example 30]"
  LD50 at 144 h: "2000 to 3000 mg/kg"
- Compound: "CCCOc1cccc2cc(-c3nnn[nH]3)c(=O)oc12 [Example 5, 8-n-Propoxy-3-(1H-tetrazol-5-yl)coumarin]"
  LD50 at 144 h: "2000 to 3000 mg/kg"
- Compound: "CC(C)Oc1cccc2cc(-c3nnn[nH]3)c(=O)oc12 [Example 6]"
  LD50 at 144 h: "2250 mg/kg"
- Compound: "CCCCCCCOc1cccc2cc(-c3nnn[nH]3)c(=O)oc12 [Example 11]"
  LD50 at 144 h: "2000 to 3000 mg/kg"
- Compound: "Cc1cc(OC(C)C)c2oc(=O)c(-c3nnn[nH]3)cc2c1 [Example 22]"
  LD50 at 144 h: "2200 mg/kg"

Next item in the queue.
Query :: Annotate the compound CC(C)=CCC/C(C)=C/COc1cccc2cc(-c3nnn[nH]3)c(=O)oc12 [Example 17] with its measured LD50 at 144 h.
Result :: 500 to 1000 mg/kg
